# Measurement target: UniProt Q99705
# Measurement protocol: MCH receptor 1 blockade in cells – cell-based, fluorescence, dose response, set 3, selectivity assay for GPR7 antagonist project, late-stage follow-up (AID 540371)
# Experimental setup: MCHR1-expressing cells, run 1
Activity calls are given as the source filed them. No rule for the calls is given here.
Hello, when you answer, please use one of the following outcomes: active, inactive

Answered cases to consult:
>  <Test smiles>
O=c1c(Oc2ccc3c(c2)CCO3)c(Cl)cnn1Cc1cccc2ccccc12

>  <Class label>
active

$$$$
>  <Test smiles>
CCc1ccc(Oc2c(Cl)cnn(Cc3cccc4ccccc34)c2=O)cc1

>  <Class label>
active

$$$$
>  <Test smiles>
COc1ccc(Oc2c(C#N)cnn(Cc3cccc4ccccc34)c2=O)cc1

>  <Class label>
active

$$$$
>  <Test smiles>
COc1ccc(Oc2c(Cl)cnn(Cc3ccccc3C(F)(F)F)c2=O)cc1

>  <Class label>
active

$$$$
>  <Test smiles>
COc1ccc(Sc2c(Cl)cnn(Cc3cccc4ccccc34)c2=O)cc1

>  <Class label>
inactive

$$$$

What call does the record list for COc1ccc(Oc2c(Cl)c(C#N)nn(Cc3ccccc3C)c2=O)cc1 ?
active
